Source of measurements: patent US8921376B2

Target: JAK2 (Homo sapiens)
Assay: JAK2 inhibition assay (as Example 3 with JAK-2 enzyme)
Format: biochemical
Settings: Table 6; enzyme inhibition data (Ki)
pKi: −log10 of the molar value.
Assignment: determine reported pKi for the given compounds.

- COMPOUND: "Clc1cnc2[nH]ccc2c1-c1ccco1"
  SYSTEM: "JAK2 (Homo sapiens)"
  pKi: "> 6.30"
- COMPOUND: "O=C(NC1CCCCC1)c1cc(-c2ccnc3[nH]ccc23)c[nH]1"
  SYSTEM: "JAK2 (Homo sapiens)"
  pKi: "> 6.30"
- COMPOUND: "N#CCCN(Cc1cccnc1)C(=O)c1cc(-c2ccnc3[nH]ccc23)c[nH]1"
  SYSTEM: "JAK2 (Homo sapiens)"
  pKi: "> 6.30"
- COMPOUND: "C[C@@H](Nc1ccnc(-c2ccnc3[nH]ccc23)n1)C(=O)NCC(F)(F)F"
  SYSTEM: "JAK2 (Homo sapiens)"
  pKi: "5.30 to 6.30"
- COMPOUND: "CCCNC(=O)c1cccc(-c2ccnc3[nH]ccc23)c1"
  SYSTEM: "JAK2 (Homo sapiens)"
  pKi: "< 5.30"

# return pKi for each item in the list
1. C#CCNC(=O)c1cc(-c2ccnc3[nH]ccc23)c[nH]1
2. COc1ccc(Cl)cc1-c1ccnc2[nH]ccc12
3. O=C(c1cc(-c2ccnc3[nH]ccc23)c[nH]1)N1CCC(O)C1 (stereo not drawn) [compound 377]
4. C[C@@H]1CCC[C@H](C)N1C(=O)c1csc(-c2ccnc3[nH]ccc23)n1

// result
1: > 6.30; 2: 5.30 to 6.30; 3: 5.30 to 6.30; 4: > 6.30

* * *

Assignment: determine reported pKi for the given compounds.
Molecular target: ROCK I (Homo sapiens)
Experiment: ROCK-I inhibition assay (radioactive enzyme assay, MBP substrate)
Assay type: biochemical
Conditions: Table 6; enzyme inhibition data (Ki)
pKi: −log10 of the molar value.

Take a look at these entries with their results.
- COMPOUND: "C[C@@H](Nc1nc(-c2ccnc3[nH]ccc23)nc2ccccc12)C(=O)NCC(F)(F)F [compound 200]"
  OBSERVED MEASUREMENT: "< 5.40"
- COMPOUND: "CC(C)(C)OCc1ccccc1-c1ccnc2[nH]ccc12 [compound 232]"
  OBSERVED MEASUREMENT: "< 5.40"
- COMPOUND: "Fc1ccccc1-c1ccnc2[nH]ccc12 [compound 236]"
  OBSERVED MEASUREMENT: "> 6.30"

# return pKi for each item in the list
1. CC(C)CC(=O)Nc1nc(-c2ccnc3[nH]ccc23)cs1 [compound 378]
2. CN(C)C1CCN(C(=O)c2cc(-c3ccnc4[nH]ccc34)c[nH]2)C1 (centres unmarked) [compound 371]

// result
1. > 6.30
2. 5.30 to 6.30

* * *

Molecular target: ROCK I (Homo sapiens)
Test: ROCK-I inhibition assay (radioactive enzyme assay, MBP substrate)
Assay type: biochemical
Settings: enzyme inhibition, Ki(app), Table 5
TEST READOUT: Ki

Take a look at these entries with their results.
- MOLECULE: "CC(=O)Nc1ccc(-c2ccnc3[nH]ccc23)cc1"
  Ki: "< 500 nM"
- MOLECULE: "CC(=O)Nc1cccc(-c2ccnc3[nH]ccc23)n1"
  Ki: "500 to 5000 nM"
- MOLECULE: "C[C@H](Nc1ccnc(-c2ccnc3[nH]ccc23)n1)C(=O)NC1CC1"
  Ki: "500 to 5000 nM"
- MOLECULE: "CC(C)(CO)CNc1cccc(-c2ccnc3[nH]ccc23)n1"
  Ki: "500 to 5000 nM"
- MOLECULE: "CC(C)N(C)c1cccc(-c2ccnc3[nH]ccc23)n1"
  Ki: "500 to 5000 nM"

# return Ki for each item in the list
1. Clc1cnc2[nH]ccc2c1C1=CCCCC1
2. CC1CCCC=C1c1c(Cl)cnc2[nH]ccc12 (stereo not drawn)

// result
1. 500 to 5000 nM
2. 500 to 5000 nM

* * *

Biological target: ROCK I (Homo sapiens, UniProt Q13464)
Sequence (Q13464 whole entry): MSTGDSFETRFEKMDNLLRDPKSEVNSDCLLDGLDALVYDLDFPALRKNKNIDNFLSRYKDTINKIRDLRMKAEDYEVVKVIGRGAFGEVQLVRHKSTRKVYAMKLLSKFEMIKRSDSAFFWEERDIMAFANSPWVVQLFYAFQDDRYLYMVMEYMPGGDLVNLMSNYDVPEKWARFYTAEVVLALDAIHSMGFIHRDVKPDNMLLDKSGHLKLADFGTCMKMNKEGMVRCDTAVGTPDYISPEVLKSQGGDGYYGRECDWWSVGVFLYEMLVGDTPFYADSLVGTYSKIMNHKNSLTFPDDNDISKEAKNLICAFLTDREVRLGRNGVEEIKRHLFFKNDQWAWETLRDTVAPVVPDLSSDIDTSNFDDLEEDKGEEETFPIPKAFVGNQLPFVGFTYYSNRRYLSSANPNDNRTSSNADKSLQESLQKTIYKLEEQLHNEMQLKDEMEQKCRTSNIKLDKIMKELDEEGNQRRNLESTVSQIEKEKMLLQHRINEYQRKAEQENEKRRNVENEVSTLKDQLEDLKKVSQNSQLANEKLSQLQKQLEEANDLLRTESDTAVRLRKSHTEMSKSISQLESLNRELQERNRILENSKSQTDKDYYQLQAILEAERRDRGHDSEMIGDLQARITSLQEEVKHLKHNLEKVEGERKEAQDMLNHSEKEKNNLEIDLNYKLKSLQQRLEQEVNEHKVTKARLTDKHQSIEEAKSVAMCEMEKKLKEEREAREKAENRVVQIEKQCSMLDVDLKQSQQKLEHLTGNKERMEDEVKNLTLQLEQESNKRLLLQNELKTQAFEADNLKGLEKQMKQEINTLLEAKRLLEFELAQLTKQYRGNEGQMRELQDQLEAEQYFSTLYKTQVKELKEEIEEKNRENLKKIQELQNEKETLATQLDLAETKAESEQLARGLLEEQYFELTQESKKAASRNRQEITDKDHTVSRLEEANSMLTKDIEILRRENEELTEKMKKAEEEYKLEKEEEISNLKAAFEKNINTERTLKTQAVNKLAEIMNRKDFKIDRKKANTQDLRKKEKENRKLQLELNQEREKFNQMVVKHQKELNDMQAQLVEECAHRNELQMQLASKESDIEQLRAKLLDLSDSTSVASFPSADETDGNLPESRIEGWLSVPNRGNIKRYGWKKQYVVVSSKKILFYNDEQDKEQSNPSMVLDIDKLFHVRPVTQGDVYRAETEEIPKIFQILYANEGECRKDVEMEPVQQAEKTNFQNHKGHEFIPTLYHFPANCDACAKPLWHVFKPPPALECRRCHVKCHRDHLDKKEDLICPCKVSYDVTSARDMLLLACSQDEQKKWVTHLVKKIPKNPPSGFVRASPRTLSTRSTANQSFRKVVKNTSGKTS
Test: ROCK-I inhibition assay (radioactive enzyme assay, MBP substrate)
Assay type: biochemical
Settings: Table 6; enzyme inhibition data (Ki)
pKi: −log10 of the molar value.
TEST READOUT: pKi

Take a look at these entries with their results.
- COMPOUND: "CC(C)CN(CC(C)C)C(=O)c1ccc(-c2ccnc3[nH]ccc23)s1"
  pKi: "> 6.30"
- COMPOUND: "C=CCN(C(=O)c1cc(-c2c(F)cnc3[nH]ccc23)c[nH]1)C(C)c1ccccc1 (stereo not drawn)"
  pKi: "5.30 to 6.30"
- COMPOUND: "CCN(C)C(=O)c1cc(-c2ccnc3[nH]ccc23)c[nH]1"
  pKi: "> 6.30"
- COMPOUND: "CCC(=O)N1CC[C@H](Nc2c(Cl)cnc3[nH]ccc23)C1"
  pKi: "< 5.40"
- COMPOUND: "CN(CC(F)(F)F)C(=O)c1cc(-c2c(F)cnc3[nH]ccc23)c[nH]1"
  pKi: "> 6.30"

# return pKi for each item in the list
1. Clc1cnc2[nH]ccc2c1N[C@@H]1CCC[C@H]1OCc1ccccc1
2. O=C(NC1CC1)c1ccc(-c2ccnc3[nH]ccc23)cc1
3. Clc1ccccc1-c1ccnc2[nH]ccc12
4. Cc1ccccc1-c1ccnc2[nH]ccc12

// result
1. > 6.30
2. 5.30 to 6.30
3. 5.30 to 6.30
4. 5.30 to 6.30

* * *

Target: ROCK I (Homo sapiens)
Experiment: ROCK-I inhibition assay (radioactive enzyme assay, MBP substrate)
Type: biochemical
Settings: Table 6; enzyme inhibition data (Ki)
Assignment: determine reported Ki for the given compounds.

Take a look at these entries with their results.
- STRUCTURE STRING: "Cc1cc(F)ccc1-c1ccnc2[nH]ccc12"
  OBSERVED MEASUREMENT: "500 to 5000 nM"
- STRUCTURE STRING: "CCCN(CCC)C(=O)c1cc(-c2ccnc3[nH]ccc23)c[nH]1"
  OBSERVED MEASUREMENT: "< 500 nM"
- STRUCTURE STRING: "CCN(Cc1ccncc1)C(=O)c1cc(-c2c(Cl)cnc3[nH]ccc23)c[nH]1"
  OBSERVED MEASUREMENT: "500 to 5000 nM"

# return Ki for each item in the list
1. N#CCNC(=O)c1cc(-c2ccnc3[nH]ccc23)c[nH]1
2. Clc1cnc2[nH]ccc2c1-c1cccs1
3. N#CCCN(Cc1cccnc1)C(=O)c1ccc(-c2ccnc3[nH]ccc23)s1
4. c1ccc(Oc2ccccc2-c2ccnc3[nH]ccc23)cc1
5. CC[C@H](C)NC(=O)c1cc(-c2ccnc3[nH]ccc23)c[nH]1
6. CCCN(CC1CC1)C(=O)c1cc(-c2ccnc3[nH]ccc23)c[nH]1

// result
1. < 500 nM
2. < 500 nM
3. < 500 nM
4. > 4000 nM
5. < 500 nM
6. < 500 nM

* * *

Assignment: determine reported Ki for the given compounds.
Target: JAK2 (Homo sapiens, UniProt O60674)
Sequence (O60674 whole entry): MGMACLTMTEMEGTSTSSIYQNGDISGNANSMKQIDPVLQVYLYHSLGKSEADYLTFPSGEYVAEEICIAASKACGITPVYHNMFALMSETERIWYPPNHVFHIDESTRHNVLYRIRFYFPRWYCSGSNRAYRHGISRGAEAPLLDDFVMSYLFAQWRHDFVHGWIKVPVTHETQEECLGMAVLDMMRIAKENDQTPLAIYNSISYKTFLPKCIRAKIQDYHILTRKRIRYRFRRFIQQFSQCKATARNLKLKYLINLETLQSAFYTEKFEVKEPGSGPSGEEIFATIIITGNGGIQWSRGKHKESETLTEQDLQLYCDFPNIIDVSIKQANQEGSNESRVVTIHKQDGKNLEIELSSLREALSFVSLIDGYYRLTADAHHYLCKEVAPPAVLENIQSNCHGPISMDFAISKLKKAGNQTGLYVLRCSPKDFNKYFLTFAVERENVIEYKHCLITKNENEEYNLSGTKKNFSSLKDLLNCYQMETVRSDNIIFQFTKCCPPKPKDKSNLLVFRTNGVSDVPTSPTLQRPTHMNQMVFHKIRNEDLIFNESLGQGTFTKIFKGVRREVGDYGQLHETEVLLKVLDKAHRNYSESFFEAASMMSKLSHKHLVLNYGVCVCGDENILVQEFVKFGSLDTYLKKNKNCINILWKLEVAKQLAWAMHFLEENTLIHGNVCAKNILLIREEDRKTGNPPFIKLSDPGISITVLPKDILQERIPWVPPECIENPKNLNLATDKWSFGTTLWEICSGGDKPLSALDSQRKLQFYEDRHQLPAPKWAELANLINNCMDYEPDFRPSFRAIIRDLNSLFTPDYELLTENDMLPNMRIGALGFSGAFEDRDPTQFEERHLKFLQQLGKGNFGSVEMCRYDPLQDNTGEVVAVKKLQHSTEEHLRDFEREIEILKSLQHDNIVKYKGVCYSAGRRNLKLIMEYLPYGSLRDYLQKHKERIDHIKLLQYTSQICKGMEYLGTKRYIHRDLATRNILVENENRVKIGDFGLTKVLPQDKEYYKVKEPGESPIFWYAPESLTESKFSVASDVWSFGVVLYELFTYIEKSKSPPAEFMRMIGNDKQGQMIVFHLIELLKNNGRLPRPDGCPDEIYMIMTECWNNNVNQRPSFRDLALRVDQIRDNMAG
Assay: JAK2 inhibition assay (as Example 3 with JAK-2 enzyme)
Format: biochemical
Conditions: Table 6; enzyme inhibition data (Ki)

- COMPOUND: "C#CCOC(=O)N1CC[C@@H](Nc2c(Cl)cnc3[nH]ccc23)C1"
  TEST READOUT: "Ki"
  OBSERVED MEASUREMENT: "< 500 nM"
- COMPOUND: "C=CCN(C(=O)c1csc(-c2ccnc3[nH]ccc23)n1)[C@@H](C)c1ccccc1"
  TEST READOUT: "Ki"
  OBSERVED MEASUREMENT: "< 500 nM"

# return Ki for each item in the list
1. C[C@@H](Nc1nc(-c2ccnc3[nH]ccc23)ncc1F)C(=O)NCC(F)(F)F
2. CC(C)(C)OC(=O)n1cccc1-c1c(Cl)cnc2[nH]ccc12
3. CC(C)(C)OC(=O)N1CCC[C@@H](Nc2c(Cl)cnc3[nH]ccc23)C1

// result
["500 to 5000 nM", "500 to 5000 nM", "< 500 nM"]

# return Ki for each item in the list
1. CC1CC(Nc2c(Cl)cnc3[nH]ccc23)CC(C)(C)C1 (stereo not drawn)
2. c1ccc(-c2ccccc2-c2ccnc3[nH]ccc23)cc1
3. CCCN(CC(F)(F)F)C(=O)c1csc(-c2ccnc3[nH]ccc23)n1
4. FC(F)(F)c1ccccc1-c1ccnc2[nH]ccc12
5. O=C(NC1CC1)c1cc(-c2ccnc3[nH]ccc23)c[nH]1
6. O=C(CC(F)(F)F)N1CCCC(Nc2c(Cl)cnc3[nH]ccc23)C1 (stereo not drawn)

// result
1: < 500 nM; 2: > 5000 nM; 3: < 500 nM; 4: > 5000 nM; 5: < 500 nM; 6: < 500 nM

# return Ki for each item in the list
1. N#CCC(=O)N1CC[C@@H](Nc2c(Cl)cnc3[nH]ccc23)C1
2. C#CCOC(=O)N1CCCC(Nc2c(Cl)cnc3[nH]ccc23)C1 (stereo not drawn)
3. O=C(c1cc(-c2ccnc3[nH]ccc23)c[nH]1)N1CCCC1CO (stereo not drawn)
4. C=CCN(CC=C)C(=O)c1cc(-c2c(F)cnc3[nH]ccc23)c[nH]1
5. Cc1cccc(-c2ccnc3[nH]ccc23)c1C
6. O=C(NCC(F)(F)F)c1ccc(-c2ccnc3[nH]ccc23)cc1
7. N#CCC(=O)N1CC[C@H](Nc2c(Cl)cnc3[nH]ccc23)C1
8. CN(Cc1cccnc1)C(=O)c1cc(-c2ccnc3[nH]ccc23)c[nH]1

// result
1: < 500 nM; 2: < 500 nM; 3: < 500 nM; 4: < 500 nM; 5: 500 to 5000 nM; 6: < 500 nM; 7: < 500 nM; 8: < 500 nM
